Measured viability at 28.5 h, 10 µM accompanies every entry in the list below.
Experiment: in vitro
Conditions: human, hela cells, % viability

// worked examples, viability at 28.5 h, 10 µM included
>  <compound>
CCC(C(=O)Nc1ccc(OC(C)=O)cc1C(=O)O)c1ccccc1 (stereo not drawn)

>  <viability at 28.5 h, 10 µM>
94.5%

$$$$
>  <compound>
OC1CCN(Cc2c([C@H]3CCCO3)[nH]c3ncccc23)CC1

>  <viability at 28.5 h, 10 µM>
110%

$$$$

QUERY: Provide measured viability at 28.5 h, 10 µM value, entry: `O=C(CN1CCC(C(=O)c2ccc(F)cc2)CC1)Nc1ncccn1`
RESULT: 95.7%

QUERY: Provide measured viability at 28.5 h, 10 µM value, entry: `COC(=O)[C@H]1CN(C(=O)c2cccs2)C[C@@H]1c1ccc(F)cc1`
RESULT: 92%

QUERY: Provide measured viability at 28.5 h, 10 µM value, entry: CCC1CCCCN1C(=O)c1ccc(OC)c(OC)c1 (stereo not drawn)
RESULT: 117%

QUERY: Provide measured viability at 28.5 h, 10 µM value, entry: CCNC(Cc1ccc2ccccc2c1)C(=O)OC (stereo not drawn)
RESULT: 109%

QUERY: Provide measured viability at 28.5 h, 10 µM value, entry: `Cc1nc2c(c(=O)[nH]1)CN(C(=O)c1cc(C3CC3)oc1C)CC2`
RESULT: 103%

QUERY: Provide measured viability at 28.5 h, 10 µM value, entry: O=C(O)C(Cc1ccccc1)N1C(=O)/C(=C/C(Cl)=C/c2ccc([N+](=O)[O-])cc2)SC1=S (stereo not drawn)
RESULT: 95.4%

QUERY: Provide measured viability at 28.5 h, 10 µM value, entry: Cc1nc(C)c(C(=O)NCC2CCCOC2)s1 (stereo not drawn)
RESULT: 97.2%

----------
Test: in vitro
Parameters: Viability of infected HeLa host cells, resazurin conversion, bulk resorufin fluorescence relative to DMSO
Settings: human, hela cells; bulk resorufin, mean of 2
quantity_measured: viability at 28.5 h, 1 µM (%)
Numeric answer only, unit % assumed.

// worked examples, viability at 28.5 h, 1 µM included
>  <molecule>
CN1CCCN(c2ccc(NS(=O)(=O)c3cccc(F)c3)c3ccccc23)CC1 [CBK200010C]

>  <quantity_measured>
viability at 28.5 h, 1 µM

>  <measured_result>
94.4

$$$$
>  <molecule>
Cc1noc(NS(=O)(=O)c2ccc(NC(=O)COc3cccc(Br)c3)cc2)c1C

>  <quantity_measured>
viability at 28.5 h, 1 µM

>  <measured_result>
89.3

$$$$
>  <molecule>
Cn1cncc1C(=O)NCc1ccccc1

>  <quantity_measured>
viability at 28.5 h, 1 µM

>  <measured_result>
114

$$$$
>  <molecule>
Cc1cc(C)nc(NS(=O)(=O)c2ccc(Nc3ccc4nonc4c3[N+](=O)[O-])cc2)n1

>  <quantity_measured>
viability at 28.5 h, 1 µM

>  <measured_result>
92.5

$$$$
>  <molecule>
Cn1nnnc1-c1cccc(NC(=O)c2ccc(Oc3ccccc3)cc2)c1

>  <quantity_measured>
viability at 28.5 h, 1 µM

>  <measured_result>
95.1

$$$$

QUERY: Provide measured viability at 28.5 h, 1 µM value, entry: `Cc1ccc(C(=O)/C=C\Nc2ccc(S(=O)(=O)Nc3cc(C)nc(C)n3)cc2)cc1`
RESULT: 107

QUERY: Provide measured viability at 28.5 h, 1 µM value, entry: CN(C)c1ncc(-c2cccc(Cl)c2)c(C2CCCN2C(=O)CC2CCCC2)n1 (stereo not drawn)
RESULT: 97.3

QUERY: Provide measured viability at 28.5 h, 1 µM value, entry: OC(CN1CCOCC1)Cn1c(-c2ccccc2)c(-c2ccccc2)c2ccc3ccccc3c21 (stereo not drawn) [CBK263996G]
RESULT: 90.5

QUERY: Provide measured viability at 28.5 h, 1 µM value, entry: `O=C(NCCc1c[nH]c2ccc(Cl)cc12)c1ccc(Cl)cc1Cl`
RESULT: 95.1
